Test system: SNB-75
Test: NCI tumour cell line growth inhibition, 48 h
Calls of active or inactive are those of the source. No stated cut-off is given here; in the data, active = GI50 up to about 1.1 µM and inactive = higher.
The reply should name one outcome from active, inactive

Solved entries:
>>> class("ON(CCc1ccncc1)Cc1ccccc1")
"inactive"
>>> class("COc1c(C)c(OC)c2c(c1O)[C@@H]1[C@@H]3Cc4c(OC)c(C)c(OC)c(O)c4[C@H](CNC(=O)c4cnc5ccccc5n4)N3[C@@H](C#N)[C@H](C2)N1C")
"active"
>>> class("COC(=O)c1ccccc1C1CN=NC12Cc1ccc(C)c(C)c1C2=O (stereo not given)")
"inactive"
>>> class("COc1ccc2oc(OC)c(CC=C(C)C)c(=O)c2c1C")
"inactive"
>>> class("O=c1[nH]c(=O)n(C2CC(O)C(CO)O2)cc1C#Cc1ccc(F)cc1 (stereo not given)")
"inactive"
>>> class("O=C(NC12CC3CCC1CC(C3)C2)[C@@H]1CCCN1C(=O)OCc1ccccc1 (stereo not given in full)")
"inactive"
>>> class("N=C(N)NNC(=O)CCn1[nH]c(=O)c(Cl)c(Cl)c1=O")
"inactive"
>>> class("CCOC(=O)C=C1CCN(C(=O)c2ccccc2)CC1")
"inactive"
>>> class("O=C1[C@@H]2C(c3ccccc3F)=NO[C@@H]2C(=O)N1c1ccc(Cc2ccc(N3C(=O)[C@H]4C(c5ccccc5F)=NO[C@H]4C3=O)cc2)cc1")
"inactive"
>>> class("O=C(Cc1ccccc1CCO)NCCc1ccccc1")
"inactive"

Let's switch to this molecule now.
Q) In this assay, the call recorded for Cc1cc(N(C)c2ccccc2)nc(N(C)c2ccccc2)n1 was what?
A) inactive

---

Exercise: for every item that follows, state its recorded GI50.
System: KM-20L2
Experiment: NCI tumour cell line growth inhibition, 48 h
The source made the active and inactive calls. Cut-off read from the data, not from the text of the source: active = GI50 up to about 1.1 µM and inactive = higher.

Some solved entries appear below for comparison.
>>> measured_result("OC1=CN=C(c2ccccc2)Oc2ccccc21")
"> 100 µM (inactive)"
>>> measured_result("CC(=O)OCC1OC(n2c(=S)n(-c3ccc([N+](=O)[O-])cc3)c(=O)c3ccccc32)C(OC(C)=O)C(OC(C)=O)C1OC(C)=O (stereo not given)")
"28.3 µM (inactive)"
>>> measured_result("CCN(CC)CCNc1ccc2nnn3c4ccccc4c(=O)c1c23")
"3.32 µM (inactive)"
>>> measured_result("CCCCCCCCCCCCCP(=O)(O)OCC")
"> 100 µM (inactive)"
>>> measured_result("CC(=O)NC(Cc1ccccc1)C(=S)N1CCCC1 (stereo not given)")
"> 100 µM (inactive)"

I would be grateful if you could provide GI50 for each of the following entries.
1. CCCCOC1CC2(c3ccc(OC)cc3)C(=O)c3ccccc3N2O1 (stereo not given)
2. CC(C)(C)c1ccc2c(c1)C(O)(c1ccccc1)c1cc(C(C)(C)C)ccc1C2(O)C(F)(F)F (stereo not given)
3. CSc1nc(NC2OC(COC(C)=O)C(OC(C)=O)C(OC(C)=O)C2OC(C)=O)c(-c2csc(N)n2)c(=O)n1C (stereo not given)
4. C/C(=C\CNc1ncnc2c1ncn2C1CCCCO1)COP(=O)(O)O (stereo not given)
5. CCOC(=O)c1nc(C)oc1C(F)(F)F

A)
["> 10 µM (inactive)", "1.59 µM (inactive)", "> 100 µM (inactive)", "> 100 µM (inactive)", "> 100 µM (inactive)"]

---

Test system: SF-539
Assay: NCI tumour cell line growth inhibition, 48 h
Active and inactive are the calls of the source. No stated cut-off is given here; in the data, active = GI50 up to about 1.1 µM and inactive = higher.
MEASURED ENDPOINT: GI50

Some solved entries appear below for comparison.
>>> measured_result("CCCC[S+]([O-])CC(CO)NC(=O)/C=C/c1c(C)[nH]c(=O)[nH]c1=O (stereo unspecified)")
"7.38 µM (inactive)"
>>> measured_result("COC1/C(=C\\C(=O)OC(C)(C)C)c2ccccc2N1C(C)=O (stereo unspecified)")
"> 100 µM (inactive)"
>>> measured_result("COC(=O)Cc1c(-c2c(CC(=O)OC)c3ccccc3n2C2OC(COC3OC(COC(C)=O)C(OC(C)=O)C(OC(C)=O)C3OC(C)=O)C(O)C(O)C2O)[nH]c2ccccc12 (stereo unspecified)")
"51.5 µM (inactive)"

I would be grateful if you could provide GI50 for each of the following entries.
1. CCc1cn2c(/C=N/N=C(N)N)c(-c3cc(C)c(Cl)cc3Cl)nc2s1
2. COc1ccc(-c2[nH]c(-c3ccc(OC)cc3)c(-c3ccccn3)c2-c2ccccn2)cc1
3. COc1ccc(NC(=O)CC(=O)N2N=C(C)C(/N=N\c3ccc(S(=O)(=O)c4ccc(/N=N/C5C(=O)N(C(=O)CC(=O)Nc6ccc(OC)cc6)N=C5C)cc4)cc3)C2=O)cc1 (stereo unspecified)
4. O=C(Cc1ccccc1CCO)NCCc1ccccc1

A)
["1.74 µM (inactive)", "63.1 µM (inactive)", "> 100 µM (inactive)", "> 100 µM (inactive)"]

---

Exercise: for every item that follows, state its recorded GI50.
System: SNB-75
Assay: NCI tumour cell line growth inhibition, 48 h
Active and inactive are the calls of the source. Rule as the data show it: active = GI50 up to about 1.1 µM and inactive = higher.

>>> measured_result("COc1cc2c(c(OC)c1)C1(CC(CC#N)C2)SCCS1 (stereo unspecified)")
"56.9 µM (inactive)"
>>> measured_result("CO/N=[N+](\\[O-])NC(C)C")
"> 100 µM (inactive)"
>>> measured_result("O=c1cc(-c2ccccc2)oc2cc(OCCSCCCCCCCCCCSCCOc3ccc4c(=O)cc(-c5ccccc5)oc4c3)ccc12")
"> 100 µM (inactive)"

I would be grateful if you could provide GI50 for each of the following entries.
1. O=C1c2cc3c(cc2CC1Cc1ccc2c(c1)CCC2)CCC3 (stereo unspecified)
2. CC(C)(C)C1=CC(=C2C=Cc3ccccc3O2)C=C(C(C)(C)C)C1=O
3. COC(=O)CSc1ccccc1
4. O=C(NC12CC3CC(CC(C3)C1)C2)C(=O)c1c[nH]c2ccc(Br)cc12
5. CC(C)/C=C1\CCC(CN(C)C)C1=O (stereo unspecified)
6. N#CC(c1ccccc1)N(CCc1ccccc1)C(=O)Oc1ccccc1 (stereo unspecified)

A)
["13.4 µM (inactive)", "5.55 µM (inactive)", "> 100 µM (inactive)", "12.6 µM (inactive)", "3.48 µM (inactive)", "25.6 µM (inactive)"]

I would be grateful if you could provide GI50 for each of the following entries.
1. CCCCOC1CC2(c3ccc(OC)cc3)C(=O)c3ccccc3N2O1 (stereo unspecified)
2. CNC(=O)NCCCC(NC(C)=O)C(=O)NCc1ccccc1 (stereo unspecified)

A)
1. > 100 µM (inactive)
2. 42.2 µM (inactive)

---

System: SK-MEL-2
Assay: NCI tumour cell line growth inhibition, 48 h
Activity calls are given as the source filed them. No stated cut-off is given here; in the data, active = GI50 up to about 1.1 µM and inactive = higher.
Exercise: for every item that follows, state its recorded GI50.

Some solved entries appear below for comparison.
>>> measured_result("NC1CCC(c2cc3ccccc3s2)(N2CCCCC2)CC1 (stereo unspecified)")
"1.55 µM (inactive)"
>>> measured_result("CC(=O)O[C@H]1[C@H](OC(C)=O)[C@@H](CN=[N+]=[N-])OCO[C@@H]1CN=[N+]=[N-]")
"> 100 µM (inactive)"

I would be grateful if you could provide GI50 for each of the following entries.
1. COC1/C(=C\C(=O)OC(C)(C)C)c2ccccc2N1C(C)=O (stereo unspecified)
2. Cn1c(N(CCO)CCO)cnc1[N+](=O)[O-]

A)
> 100 µM (inactive)
> 100 µM (inactive)

I would be grateful if you could provide GI50 for each of the following entries.
1. COc1ccc(C(=O)C2CC3(CCC2(O)c2ccc(OC)cc2)CC(=O)Nc2ccccc2C3=O)cc1 (stereo unspecified)
2. CCC1(CC)C(=O)N(C(=O)c2ccccc2)N(C(=O)c2ccc(Cl)cc2)C1=O
3. Nc1nnc2c(-c3ccccc3)n[nH]c2n1
4. O=C1Nc2ccccc2C(=O)O/C(Cc2ccccc2)=N\c2ccccc21
5. CCOC(=O)c1nc2ccc(C(F)(F)F)cc2[nH]c1=O
6. O=C(Cc1ccccc1CCO)NCCc1ccccc1
7. NC1=CN(Cc2ccccc2)C2=N/C(=C\c3ccccc3O)C(=O)N12

A)
> 100 µM (inactive)
> 75 µM (inactive)
90.2 µM (inactive)
> 100 µM (inactive)
> 100 µM (inactive)
> 100 µM (inactive)
> 100 µM (inactive)

---

Exercise: for every item that follows, state its recorded GI50.
Tested on: OVCAR-3
Test: NCI tumour cell line growth inhibition, 48 h
Activity calls are given as the source filed them. Cut-off read from the data, not from the text of the source: active = GI50 up to about 1.1 µM and inactive = higher.

>>> measured_result("CCOC(=O)C1=C(C)NC(=O)N([N+](=O)[O-])C1c1ccccc1C(F)(F)F (centres undefined)")
"47.5 µM (inactive)"
>>> measured_result("C=CCN1/C(=C2\\SC(=S)N(c3ccc(C)cc3)C2=O)Sc2c1nc[nH]c2=O")
"> 100 µM (inactive)"
>>> measured_result("Cc1cc(N(CCC#N)S(=O)(=O)c2ccccc2)ccc1/C=C1\\N=C(c2ccc(Cl)cc2)OC1=O")
"> 100 µM (inactive)"
>>> measured_result("NC1=CN(Cc2ccccc2)C2=N/C(=C\\c3ccccc3O)C(=O)N12")
"> 100 µM (inactive)"
>>> measured_result("CN1CCN(C(=S)N(C)C(=O)c2ccco2)CC1")
"> 100 µM (inactive)"

I would be grateful if you could provide GI50 for each of the following entries.
1. CC[C@]12C=CCN3CC[C@@]4(c5cc(Br)c(OC)cc5N(C)[C@H]4[C@@](O)(C(=O)NN)[C@@H]1O)[C@@H]32
2. CC1(C)CC[C@]2(C(=O)O)CC[C@]3(C)C(=CC[C@@H]4[C@@]5(C)CC[C@H](OC6OC(CO)C(O)C(O)C6O)C(C)(C)[C@@H]5CC[C@]43C)[C@@H]2C1 (some centres undefined)
3. C=C(C)C1CC[C@@](C)(O)[C@H](C#N)C1 (some centres undefined)
4. O=C(O)c1[nH]c(C(=O)O)c(CC(F)(F)C(F)(F)C(F)(F)F)c1CC(F)(F)C(F)(F)C(F)(F)F

A)
1. 58.9 µM (inactive)
2. 1.61 µM (inactive)
3. > 100 µM (inactive)
4. > 100 µM (inactive)
